Target or system Mu-type opioid receptor (Homo sapiens); recorded quantity AC50. Further: assay procedure not described here.

# compound, readout type, test result
rows = [
    ("O=C(O)COC(=O)Cc1ccccc1Nc1c(Cl)cccc1Cl", "AC50", "> 30 µM"),
]

Report the value of AC50 obtained on Mu-type opioid receptor (Homo sapiens) for O=C1CC2(CCCC2)CC(=O)N1CCCCN1CCN(c2ncccn2)CC1 . > 30 µM

Report the value of AC50 obtained on Mu-type opioid receptor (Homo sapiens) for CO[C@@H]1[C@@H](OC(N)=O)[C@@H](O)[C@H](Oc2ccc3c(O)c(NC(=O)c4ccc(O)c(CC=C(C)C)c4)c(=O)oc3c2C)OC1(C)C . > 30 µM

Report the value of AC50 obtained on Mu-type opioid receptor (Homo sapiens) for Cc1c(C)c2c(c(C)c1O)CCC(C)(COc1ccc(CC3SC(=O)NC3=O)cc1)O2 (stereo not drawn) . > 30 µM

----------
target or system: Thromboxane A2 receptor (Homo sapiens, UniProt P21731); further: assay procedure not described here
Sequence (P21731 whole entry): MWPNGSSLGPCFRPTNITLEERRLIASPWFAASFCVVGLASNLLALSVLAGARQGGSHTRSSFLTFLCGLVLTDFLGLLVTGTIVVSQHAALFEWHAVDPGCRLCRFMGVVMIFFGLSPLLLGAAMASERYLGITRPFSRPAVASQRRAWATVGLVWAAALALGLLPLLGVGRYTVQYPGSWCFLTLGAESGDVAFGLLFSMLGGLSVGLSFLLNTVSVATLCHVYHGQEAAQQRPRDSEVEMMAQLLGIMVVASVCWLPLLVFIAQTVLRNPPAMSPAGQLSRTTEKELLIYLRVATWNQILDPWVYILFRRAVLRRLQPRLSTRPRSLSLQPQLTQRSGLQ
Type: functional, cell-based
readout type: AC50

Previously resolved entries follow.
# compound, AC50
rows = [
    ("Cc1cn(-c2cc(NC(=O)c3ccc(C)c(Nc4nccc(-c5cnccn5)n4)c3)cc(C(F)(F)F)c2)cn1", "> 30 µM"),
    ("Cc1cccc(C)c1NC(=O)c1cc(S(N)(=O)=O)c(Cl)cc1O [XIPAMIDE]", "> 30 µM"),
    ("CNC(=O)c1cnn(-c2nc(N)c3ncn([C@@H]4O[C@H](CO)[C@@H](O)[C@H]4O)c3n2)c1 [REGADENOSON ANHYDROUS]", "> 30 µM"),
]

Return AC50 for the following compound: Oc1ccc(OCc2ccccc2)cc1 > 30 µM

Return AC50 for the following compound: CCCCCCO[C@@H](C)c1cccc(-c2csc(NC(=O)c3cc(Cl)c(/C=C(\C)C(=O)O)c(Cl)c3)n2)c1OC 14.2 µM

Return AC50 for the following compound: COc1cccc2c1C(=O)c1c(O)c3c(c(O)c1C2=O)C[C@@](O)(C(=O)CO)C[C@@H]3O[C@H]1C[C@H](N)[C@H](O[C@@H]2CCCCO2)[C@H](C)O1 > 10 µM

Return AC50 for the following compound: CC(=O)OC1CN2CCC1CC2 (stereo not drawn) > 30 µM

Return AC50 for the following compound: O=NN(CCCl)C(=O)NC1CCCCC1 > 30 µM

----------
Target or system Adenosine receptor A2a (Homo sapiens); recorded quantity AC50. Further: assay procedure not described here.

# compound, target or system, readout type, test result
records = [
    ("COc1ccc2c3c1O[C@H]1C(=O)CC[C@H]4[C@@H](C2)N(C)CC[C@]314 [HYDROCODONE]", "Adenosine receptor A2a (Homo sapiens)", "AC50", "> 30 µM"),
    ("CC(=O)Oc1cccc2c1C(=O)c1c(OC(C)=O)cc(C(=O)O)cc1C2=O", "Adenosine receptor A2a (Homo sapiens)", "AC50", "24 µM"),
    ("CC1=C(C(=O)O)N2C(=O)[C@@H](NC(=O)[C@H](N)C3=CCC=CC3)[C@H]2SC1", "Adenosine receptor A2a (Homo sapiens)", "AC50", "> 30 µM"),
]

# input for lookup
Return AC50 for the following compound: C[C@H](Nc1ncnc2[nH]cnc12)c1cc2cccc(Cl)c2c(=O)n1-c1ccccc1 > 30 µM

----------
target or system: Motilin receptor (Homo sapiens, UniProt O43193); further: assay procedure not described here
Sequence (O43193 whole entry): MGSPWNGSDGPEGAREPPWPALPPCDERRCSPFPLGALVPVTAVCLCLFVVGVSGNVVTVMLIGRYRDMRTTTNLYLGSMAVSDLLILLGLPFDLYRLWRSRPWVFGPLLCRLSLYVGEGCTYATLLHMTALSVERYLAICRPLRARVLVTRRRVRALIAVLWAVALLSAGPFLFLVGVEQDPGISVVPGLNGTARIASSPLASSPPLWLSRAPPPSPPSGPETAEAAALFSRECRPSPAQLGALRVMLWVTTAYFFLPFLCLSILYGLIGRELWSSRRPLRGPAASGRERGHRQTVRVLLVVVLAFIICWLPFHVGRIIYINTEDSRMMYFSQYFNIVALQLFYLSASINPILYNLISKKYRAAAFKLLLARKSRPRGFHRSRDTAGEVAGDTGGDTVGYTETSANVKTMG
Examples of compounds with documented AC50 follow.

Previously resolved entries follow.
# compound, AC50
measured = [
    ("CCCCCCOC(=O)NC(=N)c1ccc(NCc2nc3cc(C(=O)N(CCC(=O)OCC)c4ccccn4)ccc3n2C)cc1 [DABIGATRAN ETEXILATE]", "> 30 µM"),
    ("c1cnc2cc3c(cc2n1)[C@@H]1CNC[C@H]3C1 [VARENICLINE]", "> 30 µM"),
    ("Cc1cccc(Nc2ccncc2S(=O)(=O)NC(=O)NC(C)C)c1 [TORSEMIDE]", "> 30 µM"),
    ("CN1CC2c3ccccc3Oc3ccc(Cl)cc3C2C1 (configuration not stated) [ASENAPINE]", "> 30 µM"),
    ("C[C@]12C=CC(=O)C=C1C(Cl)=C[C@@H]1[C@@H]2[C@@H](O)C[C@@]2(C)[C@H]1CC[C@]2(O)C(=O)CO [CLOPREDNOL]", "16 µM"),
]

Return AC50 for the following compound: Cc1cnc(Nc2ccc(OCCN3CCCC3)cc2)nc1Nc1cccc(S(=O)(=O)NC(C)(C)C)c1 [FEDRATINIB] 14 µM

Return AC50 for the following compound: CCC[C@@]1(CCc2ccccc2)CC(O)=C([C@H](CC)c2cccc(NS(=O)(=O)c3ccc(C(F)(F)F)cn3)c2)C(=O)O1 27 µM

Return AC50 for the following compound: CCC(=O)[C@@]1(C)[C@H](C)C[C@H]2[C@@H]3CCC4=CC(=O)C=C[C@]4(C)[C@H]3[C@@H](O)C[C@@]21C [RIMEXOLONE] > 10 µM

Return AC50 for the following compound: C=C(c1ccccc1OCc1cccc(Cl)c1)n1ccnc1 [CROCONAZOLE] > 10 µM

Return AC50 for the following compound: CN(Cc1ccc(C(C)(C)C)cc1)Cc1cccc2ccccc12 [BUTENAFINE] > 10 µM

----------
Examples of molecules with documented AC50 follow.
target or system: Alpha-2A adrenergic receptor (Homo sapiens, UniProt P08913); further: assay procedure not described here
Sequence (P08913 whole entry): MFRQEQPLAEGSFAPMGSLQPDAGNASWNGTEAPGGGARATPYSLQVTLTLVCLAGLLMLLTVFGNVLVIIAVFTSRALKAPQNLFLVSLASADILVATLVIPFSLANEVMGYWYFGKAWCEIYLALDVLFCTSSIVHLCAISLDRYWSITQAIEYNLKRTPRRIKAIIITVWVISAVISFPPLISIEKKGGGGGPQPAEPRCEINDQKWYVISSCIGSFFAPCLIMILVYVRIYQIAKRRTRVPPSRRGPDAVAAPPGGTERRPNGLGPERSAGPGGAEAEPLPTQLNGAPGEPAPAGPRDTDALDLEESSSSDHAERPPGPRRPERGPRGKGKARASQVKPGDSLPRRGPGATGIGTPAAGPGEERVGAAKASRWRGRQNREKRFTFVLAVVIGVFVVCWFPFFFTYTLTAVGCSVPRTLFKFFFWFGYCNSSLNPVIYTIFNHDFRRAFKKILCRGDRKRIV

# molecule, AC50
data = [
    ("CC1(C)C[C@@H]1C(=O)N/C(=C\\CCCCSC[C@H](N)C(=O)O)C(=O)O [CILASTATIN]", "> 30 µM"),
]

Return AC50 for the following molecule: CC(C)=CCC/C(C)=C/CC/C(C)=C/CC/C(C)=C/CC1=C(C)C(=O)c2ccccc2C1=O [MENATETRENONE] > 10 µM

Return AC50 for the following molecule: CN1CCCC(CC2c3ccccc3Sc3ccccc32)C1 (stereo not drawn) [METHIXENE] 4.82 µM

Return AC50 for the following molecule: CC(C)(Oc1ccc(C(=O)c2ccc(Cl)cc2)cc1)C(=O)O [FENOFIBRIC ACID] > 30 µM

Return AC50 for the following molecule: [H]/N=C(/N)NS(=O)(=O)c1ccc(N)cc1 [SULFAGUANIDINE] > 30 µM

Return AC50 for the following molecule: O=C(O)[C@H](O)[C@@H](O)[C@H](O)[C@H](O)CO [GLUCONIC ACID] > 30 µM

Return AC50 for the following molecule: C[C@@H]1O[C@@H](O[C@H]2C[C@@H](O)[C@]3(CO)[C@H]4[C@H](O)C[C@]5(C)[C@@H](C6=CC(=O)OC6)CC[C@]5(O)[C@@H]4CC[C@]3(O)C2)[C@H](O)[C@H](O)[C@H]1O [OUABAIN] > 30 µM

Return AC50 for the following molecule: CNC1(c2ccccc2Cl)CCCCC1=O (stereo not drawn) [KETAMINE] > 30 µM

----------
Target or system Alpha-2B adrenergic receptor (Homo sapiens, UniProt P18089); recorded quantity AC50. Further: assay procedure not described here.

Previously resolved entries follow.
# compound, target or system, test result
data = [
    ("OCC(CO)N[C@H]1C[C@](O)(CO)[C@@H](O)[C@H](O)[C@H]1O", "Alpha-2B adrenergic receptor (Homo sapiens, UniProt P18089)", "> 30 µM"),
    ("CCN(CC)CCn1c(=O)c(Cc2ccc(OC)cc2)nc2ccccc21", "Alpha-2B adrenergic receptor (Homo sapiens, UniProt P18089)", "21 µM"),
    ("CN1CCCN=C1/C=C/c1cccc(O)c1", "Alpha-2B adrenergic receptor (Homo sapiens, UniProt P18089)", "> 30 µM"),
]

Report the value of AC50 obtained on Alpha-2B adrenergic receptor (Homo sapiens, UniProt P18089) for NS(=O)(=O)c1ccc(N2CCCCS2(=O)=O)cc1 . > 30 µM

Report the value of AC50 obtained on Alpha-2B adrenergic receptor (Homo sapiens, UniProt P18089) for CCC(NC(C)C)C(O)c1ccc(O)c(O)c1 (stereo not given) . > 30 µM

Data provenance is ChEMBL document CHEMBL5291721.
